system: CCRIS mutagenicity, Ames/micronucleus/aberration tests; test: CCRIS mutagenicity studies; details: Test System: AMES SALMONELLA TYPHIMURIUM; Strain/Indicator: TA98; Metabolic Activation: RAT, LIVER, S-9, AROCLOR 1254; Method: STANDARD PLATE
Activity calls are given as the source filed them. How the calls were made is not given here.
Parameter call: string, one of y (active), n (inactive)

See these solved cases before continuing.
Record request — test call for CCCCCCCCCCCCS
n

Next record, please: O[C@@H]1C=Cc2c(cc3ccc4cccc5ccc2c3c45)[C@@H]1O
y

Next record, please: Fc1c(F)c(F)c(Cl)c(F)c1F
n

Next record, please: CNC(=O)Oc1ccccc1
n

Next record, please: Cc1cnc2c(C)c(C)c3c(nc(N)n3C)c2n1
y

More entries:
Record request — test call for NC(=O)N/N=C/C(=O)O
n

Next record, please: OCCCc1ccccc1
n

Next record, please: O=[N+]([O-])c1ccc2cc3ccccc3cc2c1
y

Next record, please: C/C=C\c1ccc(OC)cc1OC
n

Next record, please: Nc1cccc2cc3ccccc3cc12
y

Next record, please: O[C@H]1C=Cc2c(ccc3c4c5c(cccc5cc23)C=C4)[C@@H]1O
y

Next record, please: O=c1[nH]c(=O)n([C@H]2C[C@H](O)[C@@H](CO)O2)cc1/C=C/Br
n

Next record, please: Cc1nc2cc(C)c3c(nc(N)n3C)c2nc1C
y

Next record, please: Nc1ccc(O)c2c1C(=O)c1c(O)ccc(N)c1C2=O
y

Next record, please: Oc1cccc2cccnc12
y

Next record, please: [Cl][Sn][Cl]
n

Next record, please: O=C(/C=C/c1ccc(F)cc1)c1ccccc1
n

Next record, please: CCCOc1cc(N=Nc2ccc(N(CC)CC)cc2)ccc1N=Nc1c(S(=O)(=O)O)cc2ccc(N)cc2c1O
y

Next record, please: FC(F)(F)c1cccc(Cl)c1
n

Next record, please: CC(=O)N(CC(O)CN(C(C)=O)c1c(I)c(C(=O)NCC(O)CO)c(I)c(C(=O)NCC(O)CO)c1I)c1c(I)c(C(=O)NCC(O)CO)c(I)c(C(=O)NCC(O)CO)c1I (stereo unspecified)
n

Next record, please: NCCc1cnc[nH]1
n
